Would you kindly list GI50 for each of these molecules?
System: UO-31
test details: NCI tumour cell line growth inhibition, 48 h
Structures can show the parent of a compound that is named as a salt. Calls of active or inactive are those of the source. No stated cut-off is given here; in the data, active = GI50 up to about 1.1 µM and inactive = higher.

Inquiry: For the molecule shown here, CCCCC(C(=O)C(=O)Nc1ccc(C)cc1C)C(=O)C(C)C (configuration not stated) , give the reported GI50.
Reply text: > 100 µM (inactive)

Inquiry: Same question, Cc1cc2c(nn1)-c1ccccc1C2=O this time
Reply text: > 10 µM (inactive)

Inquiry: Same question, [N-]=[N+]=Nc1cccc(-c2nnc(Cl)cc2O)c1 this time
Reply text: > 10 µM (inactive)

Inquiry: Same question, Brc1ccc2c(-c3csc(-c4c[nH]c5ccc(Br)cc45)n3)c[nH]c2c1 this time
Reply text: 3.82 µM (inactive)

Inquiry: Same question, COC(=O)C(CCSc1ccccc1)C(=O)OC this time
Reply text: > 100 µM (inactive)

Inquiry: Same question, NCCSSCCN [CYSTAMINE HYDROCHLORIDE] this time
Reply text: > 100 µM (inactive)

Inquiry: Same question, [O-][S+](c1ccccc1)c1ccc(/N=N/O)nc1 (configuration not stated) this time
Reply text: > 100 µM (inactive)

====

Test system: K562
test details: NCI tumour cell line growth inhibition, 48 h
Active and inactive are the calls of the source. Rule as the data show it: active = GI50 up to about 1.1 µM and inactive = higher.
parameter: GI50

Inquiry: For the compound shown here, c1ccc2c(c1)cc1n2CCc2c-1[nH]c1ccccc21 , give the reported GI50.
Reply text: > 10 µM (inactive)

Inquiry: Same question, C[C@@H](CCO)OC1OC(COC(=O)C(C)(C)C)C(OC(=O)C(C)(C)C)C(OC(=O)C(C)(C)C)C1OC(=O)C(C)(C)C (stereo partly drawn) this time
Reply text: 89.7 µM (inactive)

Inquiry: Same question, Cc1cc(O)nc(NNC(C#N)c2c(O)ccc3ccccc23)n1 (stereo not drawn) this time
Reply text: 3.68 µM (inactive)

====

Would you kindly list GI50 for each of these molecules?
Test system: SNB-19
test details: NCI tumour cell line growth inhibition, 48 h
Structures can show the parent of a compound that is named as a salt. Activity calls are given as the source filed them. Rule as the data show it: active = GI50 up to about 1.1 µM and inactive = higher.

Inquiry: For the molecule shown here, CN(C(=O)C12C3C4(C(=O)O)C1(C(=O)N(C)C(C)(C)C)C1C2(C(=O)O)C3(C(=O)N(C)C(C)(C)C)C14C(=O)N(C)C(C)(C)C)C(C)(C)C (configuration not stated) , give the reported GI50.
Reply text: > 100 µM (inactive)

Inquiry: Same question, COC1=CC(=O)c2c(O)c3c(c(O)c2C1=O)C=C(C)OC3O (configuration not stated) this time
Reply text: 2.48 µM (inactive)

Inquiry: Same question, C[C@]12CC=CC(=O)[C@@]1(C)CCC(=O)C2 this time
Reply text: > 100 µM (inactive)

Inquiry: Same question, O=C(NC12CC3CC(CC(C3)C1)C2)C(=O)c1c[nH]c2ccccc12 this time
Reply text: 17.9 µM (inactive)

Inquiry: Same question, N/N=C(/C(=O)Nc1cccc(Cl)c1)C(C(=O)c1ccc(O)cc1O)C1OC(=O)c2ccccc21 (configuration not stated) this time
Reply text: 68.2 µM (inactive)

Inquiry: Same question, CC1(C)C2C=CC1(C)C1(CC2)OCCO1 (configuration not stated) this time
Reply text: > 100 µM (inactive)

Inquiry: Same question, COc1cc2c(c(OC)c1OC)C(=O)[C@H](Br)[C@H]2NC(=O)NCCCl this time
Reply text: > 100 µM (inactive)

Inquiry: Same question, O=C(/C=N/O)Nc1cc(Cl)c(Cl)cc1Cl this time
Reply text: 50.5 µM (inactive)

Inquiry: Same question, CC1(C)CC2(C)ON=C(c3ccccc3)N2c2ccccc2N1 (configuration not stated) this time
Reply text: 24.2 µM (inactive)

Inquiry: Same question, Cc1c(O)c(=O)ccn1CCc1ccc(O)cc1 this time
Reply text: 15.6 µM (inactive)

Inquiry: Same question, O=c1/c(=C/c2ccc3c(c2)OCO3)sc2nnc(-c3ccco3)n12 this time
Reply text: > 100 µM (inactive)

Inquiry: Same question, NCCSSCCN [CYSTAMINE HYDROCHLORIDE] this time
Reply text: > 100 µM (inactive)

Inquiry: Same question, Cc1ccccc1C1SCc2nc3ccccc3n21 (configuration not stated) this time
Reply text: > 100 µM (inactive)

Inquiry: Same question, CN(C)CCSS(=O)(=O)O this time
Reply text: > 100 µM (inactive)

Inquiry: Same question, O=[N+]([O-])c1ccc(N2N=C(c3ccc4ccccc4c3O)CC2c2ccc(Cl)cc2Cl)c([N+](=O)[O-])c1 (configuration not stated) this time
Reply text: 29.3 µM (inactive)

Inquiry: Same question, Cc1ccc(OCCn2cc(Nc3ccccc3)c(=O)[nH]c2=O)cc1 this time
Reply text: > 100 µM (inactive)

Inquiry: Same question, CCOC(=O)N1CCC2(CC1)CC(=O)N(Nc1ccccc1)C2=O this time
Reply text: > 100 µM (inactive)

Inquiry: Same question, Cc1nn(-c2ccccc2)c(S)c1C(=O)c1ccccc1 this time
Reply text: 41 µM (inactive)

Inquiry: Same question, CC(=O)OC1CC2C(C)(C)C(=O)C=CC2(C)C2CCC3(C)C(c4ccoc4)OC(=O)C4OC43C12C (configuration not stated) this time
Reply text: 19.5 µM (inactive)

Inquiry: Same question, CCOC(=O)C1=C(C)N(C2OC(COC(C)=O)C(OC(C)=O)C(OC(C)=O)C2OC(C)=O)C(=O)NC1c1ccccc1 (configuration not stated) this time
Reply text: > 100 µM (inactive)

Inquiry: Same question, NC(=O)C(N)CC12CC3CC(CC(C3)C1)C2 (configuration not stated) this time
Reply text: 23.7 µM (inactive)

Inquiry: Same question, COc1cccc(NC(=O)CSc2nnc(Cc3ccccc3)o2)c1 this time
Reply text: > 100 µM (inactive)
